- Tested on: PC-3
- assay text: NCI tumour cell line growth inhibition, 48 h
Calls of active or inactive are those of the source. Cut-off read from the data, not from the text of the source: active = GI50 up to about 1.1 µM and inactive = higher.
quantity measured: GI50

Known results for compounds:
compound	assayed system	GI50
COC(=O)[C@@H](N1C(=O)c2ccccc2C1=O)C1(C)CC(Cl)=NO1 (stereo not given in full)	PC-3	> 100 µM (inactive)
COc1ccc2c(CCNS(=O)(=O)c3ccccc3)c(C(C)=O)[nH]c2c1	PC-3	> 71.9 µM (inactive)

Form field GI50, entry "O=C1NC(N2CCOCC2)=N/C1=C\c1ccccc1O" : > 100 µM (inactive)

---

- System: SNB-75
- assay text: NCI tumour cell line growth inhibition, 48 h
Activity calls are given as the source filed them. Cut-off read from the data, not from the text of the source: active = GI50 up to about 1.1 µM and inactive = higher.
Answer with one of the outcomes active, inactive

compound	discrete label
COc1ccc2[nH]c3c([N+](=O)[O-])ccc(NCCCN(C)C)c3/c(=N/CCCN(C)C)c2c1	inactive

Req: Recorded test outcome, item Nc1cc2c(c3ccccc13)C(CCl)CN2C(=O)c1cc2cc(NC(=O)c3cc4ccccc4o3)ccc2[nH]1 (configuration not stated)
Resp: active

Req: Recorded test outcome, item "O=C1C(Cl)=C(OCCCl)C(=O)c2c(O)ccc(O)c21"
Resp: inactive

Req: Recorded test outcome, item "O[C@@H]1CCC[C@@H]2NC[C@@H](c3ccc4c(c3)OCO4)[C@H]12"
Resp: inactive

Req: Recorded test outcome, item CC1SC(c2ccccc2)N(Nc2c3ccccc3nc3ccccc23)C1=O (configuration not stated)
Resp: inactive

Req: Recorded test outcome, item CCOC(=O)C1C[C@H]2CO[C@H](c3ccccc3)N2C1=O (some centres not stated)
Resp: inactive

Req: Recorded test outcome, item "CC(=O)Oc1cc(Cl)c(C)c2c1[C@H]1CC[C@]3(C)[C@@H](OC(C)=O)CC[C@H]3[C@@H]1CC2"
Resp: inactive

Req: Recorded test outcome, item "[O-]c1c[n+](CC[n+]2cc([O-])on2)no1"
Resp: inactive

Req: Recorded test outcome, item CC(=O)OCC1OC(O[C@H]2C=C[C@@H](C(=O)OCc3ccccc3)n3c(=O)n(-c4ccccc4)c(=O)n32)C(OC(C)=O)C(OC(C)=O)C1OC(C)=O (some centres not stated)
Resp: inactive

Req: Recorded test outcome, item "CN1CCN([C@H]2C[C@H]3[C@@H]4CC=C5C[C@@H](O)CC[C@]5(C)[C@H]4CC[C@]3(C)[C@H]2O)CC1"
Resp: inactive

Req: Recorded test outcome, item COC(=O)C1=CC2C=CC(C1C(=O)OC)C1C(C(=O)OC)=C(C(=O)OC)C(C(=O)OC)=C(C(=O)OC)C21OC (configuration not stated)
Resp: inactive

Req: Recorded test outcome, item "COc1ccc(S(=O)(=O)c2ccccc2[N+](=O)[O-])cc1"
Resp: inactive

Req: Recorded test outcome, item "O=C1C=C(Nc2ccccc2C(=O)CC(=O)C(=O)Nc2cccc(C(F)(F)F)c2)c2ccccc2C1=O"
Resp: inactive

Req: Recorded test outcome, item "CCN(CC)CCCNc1nccc2c(C)c3[nH]c4ccncc4c(=O)c3cc12"
Resp: inactive

Req: Recorded test outcome, item "O=C(c1ccccc1)n1[nH]c(=O)n(-c2ccc(Cl)cc2)c1=O"
Resp: inactive

Req: Recorded test outcome, item "c1ccc2c(CN3CCN(Cc4c[nH]c5ccccc45)CC3)c[nH]c2c1"
Resp: inactive

Req: Recorded test outcome, item "COc1cccc2c1NC(=O)Cc1c-2[nH]c2ccccc12"
Resp: inactive

---

- Test system: TK-10
- assay text: NCI tumour cell line growth inhibition, 48 h
Activity calls are given as the source filed them. Rule as the data show it: active = GI50 up to about 1.1 µM and inactive = higher.
The following molecules are listed with their measured GI50 values.

Known results for molecules:
> print(dat)
                                   molecule       value.observed
1      Cc1c(C(=O)O)oc2ccc([N+](=O)[O-])cc12  > 100 µM (inactive)
2    COc1ccc(-c2nc3ccccc3c(=S)n2OC(C)=O)cc1   > 25 µM (inactive)
3  COc1ccc(/C=N/Nc2nc3ccccc3c(=O)n2-c2ccccc2)cc1  > 100 µM (inactive)
4  COc1cc(/C=C2\[C@@H]3NC(Cc4c(OC)c(C)c(OC)c(OC)c43)C(=O)N2Cc2ccccc2)c(OC)c(C)c1OC   40.6 µM (inactive)
5  CC1(C)C=C(N2CCN(C3=CC(C)(C)NC(C)(C)C3)CC2)CC(C)(C)N1  > 100 µM (inactive)

Form field GI50, entry "O=C(c1ccccc1)n1[nH]c(=O)n(-c2ccc(Cl)cc2)c1=O" : > 100 µM (inactive)

Form field GI50, entry COc1ccccc1C1C2=C(COC2=O)Oc2cc3c(cc21)OCO3 (configuration not stated) : 12.4 µM (inactive)

Form field GI50, entry "COc1ccccc1OCC(=N/NC(=O)c1ccncc1)/N=C/c1cccnc1" : > 100 µM (inactive)

Form field GI50, entry "O=C1c2cc3c(cc2CC12Cc1cc4c(cc1C2=O)CCC4)CCC3" : > 100 µM (inactive)

Form field GI50, entry CN(C)CC1(Cc2ccccc2)CCC(Cc2ccccc2)C1=O (configuration not stated) : 13.4 µM (inactive)

Form field GI50, entry "CCOC(=O)c1csc(-c2nc(CCNC(=O)c3ccccc3)sc2Cl)n1" : > 100 µM (inactive)

Form field GI50, entry O=C(O)C1[C@@H](C(=O)O)C1(Br)CBr (some centres not stated) : > 100 µM (inactive)

Form field GI50, entry CC(C)c1ccc2c(c1)C=C1OC(=O)[C@]3(C)CCC[C@@]2(C)C13 (some centres not stated) : > 100 µM (inactive)

---

- System: PC-3
- assay text: NCI tumour cell line growth inhibition, 48 h
Active and inactive are the calls of the source. Cut-off read from the data, not from the text of the source: active = GI50 up to about 1.1 µM and inactive = higher.
Answer with one of the outcomes yes = active, no = inactive

Before answering, review these 2 worked examples.
> print(dat)
                                   molecule  discrete.label
1  COc1cc(/C=C2\CCC(C)C3=C2NC(=S)NC3c2cc(OC)c(OC)c(OC)c2)cc(OC)c1OC (centres undefined)              no
2  O=C(O)c1ccc(C(=O)Nc2cccc3ccccc23)c(C(=O)O)c1              no

Attention now shifts to the item below.
Req: Recorded test outcome, item C=CCOc1ccc(C2c3c(n[nH]c3O)CC(O)(OCC)C2C(=O)OCC)cc1OC (centres undefined)
Resp: no

---

HCT-15 data, read-out GI50

Entry "CSc1nc(-c2cc3c(c(SC)n2)CCCCC3)cc2c1CCCCC2" , HCT-15 data, GI50 value: > 100 µM

Entry Cc1cc(Cl)ccc1NC(=O)CCCC(=O)C(C(=O)c1ccccc1)c1ccccc1 (stereo not given) , HCT-15 data, GI50 value: > 100 µM

Entry "O=C1Nc2ccccc2S/C1=C\c1cccc(C(F)(F)F)c1" , HCT-15 data, GI50 value: > 100 µM

Entry CCOC(=O)C1C[C@H]2CO[C@H](c3ccccc3)N2C1=O (stereo not given in full) , HCT-15 data, GI50 value: > 100 µM

Entry C=CCNC(=O)C(C)C1CCC2(C)C=CC(=O)C(C)=C2C1O (stereo not given) , HCT-15 data, GI50 value: > 100 µM

---

- Test system: M19-MEL
- assay text: NCI tumour cell line growth inhibition, 48 h
The source made the active and inactive calls. Rule as the data show it: active = GI50 up to about 1.1 µM and inactive = higher.
Answer with one of the outcomes t (active), f (inactive)

Before answering, review these 10 worked examples.
> print(dat)
                                    molecule  discrete.label
 1  Nc1ccc(C(=O)NN2C(=O)C(Cl)C2c2ccc(O)cc2)cc1 (stereo not given)               f
 2                     CC(=S)NNC(=O)c1ccncc1               f
 3  Cc1cccc(NC(=O)CC(=O)N2N=C(N(CCC#N)c3ccc(Cl)cc3)CC2c2ccccc2)c1 (stereo not given)               f
 4  CCOc1ccccc1NC(=O)CC1SC(Nc2ccc([N+](=O)[O-])cc2)=NC1=O (stereo not given)               f
 5  CC(=O)C(CN(C(C)C)C(C)C)C(c1ccccc1)c1c(O)c2ccccc2oc1=O (stereo not given)               f
 6  CC(=O)N[C@@H]1C(O)CN2C(=O)C(=O)O[C@H](C(O)CO)[C@@H]12 (stereo not given in full)               f
 7  CC1=NN(C(=O)c2ccc(Cl)cc2)C(=O)/C1=C/c1cccc([N+](=O)[O-])c1               f
 8      Cc1c(C(=O)O)oc2ccc([N+](=O)[O-])cc12               f
 9  COc1ccc2c(c1)[n+]([O-])c(C(=O)CC(=O)C(=O)Nc1cccc(C)c1C)c(C)[n+]2[O-]               f
10  CC(=O)N1CCN(c2ccc(OCC3COC(Cn4ccnc4)(c4ccc(Cl)cc4Cl)O3)cc2)CC1 (stereo not given)               f

Req: Recorded test outcome, item "CS(=O)(=O)OCCN(CCOS(C)(=O)=O)c1ccc(/C=N/c2ccc(-c3csc(COc4ccccc4)n3)cc2)cc1"
Resp: f

Req: Recorded test outcome, item CCCCCCCCCCCCCCCCCC(=O)OCC1OC(OC)C(NC(=O)N(CCCl)N=O)C(O)C1O (stereo not given)
Resp: f

Req: Recorded test outcome, item CC1(CO)C(O)CCC2(C)C1CCC1CC3CC12CCC3(O)CO (stereo not given)
Resp: f

Req: Recorded test outcome, item "CC1(C)C(=O)N(CCCCCCN2C(=O)C(C)(C)c3ccccc32)c2ccccc21"
Resp: f

Req: Recorded test outcome, item CC1COC(C)(C)P(=O)(c2ccccc2)C1 (stereo not given)
Resp: f

Req: Recorded test outcome, item CCOC(=O)CCC(=O)C1c2cccc(O)c2C(=O)c2c(O)cc(C)cc21 (stereo not given)
Resp: t

Req: Recorded test outcome, item "Cc1ccc(/C=C/C(=O)c2ccc([N+](=O)[O-])cc2)cc1"
Resp: f

Req: Recorded test outcome, item "CC1(C)OC(C(N)=O)=C(C(N)=O)O1"
Resp: f

Req: Recorded test outcome, item C/C=C1/C(=Cc2[nH]c(C=c3[nH]/c(=C/C4=NC(=O)C(CC)=C4C)c(C)c3CCC(=O)O)c(CCC(=O)O)c2C)NC(=O)C1C (stereo not given)
Resp: f

Req: Recorded test outcome, item "NC1=NC(=O)/C(=C/c2ccccc2[N+](=O)[O-])C(N)=N1"
Resp: f
